# TARGET SYSTEM: human ApoC3 (human)
# Sequence (chain, as listed by the source): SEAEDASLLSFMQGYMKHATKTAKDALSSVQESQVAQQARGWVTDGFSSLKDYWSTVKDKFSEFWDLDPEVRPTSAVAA
# TEST: SPR pH 5.5
QUANTITY: pKd
Scale: negative log10 of molar concentration, which is what pKd denotes.

mAb17 (antibody, V domains shown) VH: QLVESGGGLVQPGGSLRLSCAASGFTFSTYSMRWVRQAPGKGLEWVSSIHTEAGGTAYRDSVKGRFTISRDNAKNTLYLQMNNLRAEDTAVYYCVIAGYSDWGQGTLVTVSS VL: DIVMTQSPLSLPVTPGEPASISCKTSQGLVHSGGKTYFYWFLQKPGQSPQQLIYQVSNRASGVPDRFTGSGSGTDFTLKISRVEAEDAGVYYCAQGTYYPHTFGQGTRLEIK; 9.47
5E5VH5_VL8 IgG1 (antibody, V domains shown) VH: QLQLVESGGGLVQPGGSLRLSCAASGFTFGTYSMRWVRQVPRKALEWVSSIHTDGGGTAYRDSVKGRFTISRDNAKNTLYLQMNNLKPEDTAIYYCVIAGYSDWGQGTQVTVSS VL: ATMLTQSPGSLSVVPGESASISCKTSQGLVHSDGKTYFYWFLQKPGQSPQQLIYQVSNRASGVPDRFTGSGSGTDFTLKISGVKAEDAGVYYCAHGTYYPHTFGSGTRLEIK; 7.94
mAb1 (antibody, V domains shown) VH: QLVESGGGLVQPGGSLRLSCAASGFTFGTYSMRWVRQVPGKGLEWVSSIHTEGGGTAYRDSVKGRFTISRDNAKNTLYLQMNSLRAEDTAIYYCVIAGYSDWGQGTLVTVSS VL: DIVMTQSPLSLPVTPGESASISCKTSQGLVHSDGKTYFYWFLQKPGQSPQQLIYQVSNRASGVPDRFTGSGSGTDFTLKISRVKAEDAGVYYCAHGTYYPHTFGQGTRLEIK; 9.63

Consider the record given below.
The measured pKd associated with mAb9 (antibody, V domains shown) VH: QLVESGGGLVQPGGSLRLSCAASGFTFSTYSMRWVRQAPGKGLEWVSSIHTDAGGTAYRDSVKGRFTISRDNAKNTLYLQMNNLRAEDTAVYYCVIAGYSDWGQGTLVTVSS VL: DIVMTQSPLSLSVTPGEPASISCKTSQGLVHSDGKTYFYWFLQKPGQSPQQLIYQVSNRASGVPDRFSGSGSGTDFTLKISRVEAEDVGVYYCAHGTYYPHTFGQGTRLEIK reads 9.12
